Entries and their Ki values follow.
# tested-on: human CK2 holoenzyme (CK2α2β2) (Homo sapiens)
# Construct: made in house
# Sequence (P68400 whole entry): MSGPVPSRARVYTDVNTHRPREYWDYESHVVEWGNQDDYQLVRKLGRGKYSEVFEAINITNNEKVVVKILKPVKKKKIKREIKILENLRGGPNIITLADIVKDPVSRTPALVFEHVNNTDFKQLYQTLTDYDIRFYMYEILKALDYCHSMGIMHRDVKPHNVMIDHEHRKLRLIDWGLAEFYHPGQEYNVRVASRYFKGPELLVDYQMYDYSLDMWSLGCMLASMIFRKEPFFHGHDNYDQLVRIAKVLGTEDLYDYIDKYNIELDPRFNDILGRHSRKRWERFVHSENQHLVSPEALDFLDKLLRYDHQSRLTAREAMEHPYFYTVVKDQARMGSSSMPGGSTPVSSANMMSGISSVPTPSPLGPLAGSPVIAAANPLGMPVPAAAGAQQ
# Sequence (P67870 whole entry partner): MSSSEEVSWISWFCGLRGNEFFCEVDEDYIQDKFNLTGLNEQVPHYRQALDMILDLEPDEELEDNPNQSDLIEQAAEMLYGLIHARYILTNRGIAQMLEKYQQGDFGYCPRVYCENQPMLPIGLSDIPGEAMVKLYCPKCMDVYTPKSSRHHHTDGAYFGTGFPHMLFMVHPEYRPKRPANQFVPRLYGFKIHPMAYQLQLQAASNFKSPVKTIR
# test-description: P81 filter isotopic (radiometric) kinase assay, CK2 holoenzyme
# Format: biochemical
# test-context: substrate peptide […], Ki from IC50 by Cheng–Prusoff
recorded-endpoint: Ki (nM)

{"compound": "CC(O)CNc1nc2c(Br)c(Br)c(Br)c(Br)c2[nH]1 (racemic)", "observed-result": 127}
{"compound": "CCN(CC)CC(O)CNc1nc2c(Br)c(Br)c(Br)c(Br)c2[nH]1 (racemic)", "observed-result": 605}
{"compound": "OC(CNc1nc2c(Br)c(Br)c(Br)c(Br)c2[nH]1)C(F)(F)F (racemic)", "observed-result": 112}
{"compound": "C[C@@H](O)CNc1nc2c(Br)c(Br)c(Br)c(Br)c2[nH]1 [(R)-5]", "observed-result": 104}
{"compound": "OCCCNc1nc2c(Br)c(Br)c(Br)c(Br)c2[nH]1", "observed-result": 114}
{"compound": "OCC(O)CNc1nc2c(Br)c(Br)c(Br)c(Br)c2[nH]1 (racemic)", "observed-result": 89}
{"compound": "OCC(CO)Nc1nc2c(Br)c(Br)c(Br)c(Br)c2[nH]1", "observed-result": 124}
{"compound": "CN(CCO)c1nc2c(Br)c(Br)c(Br)c(Br)c2[nH]1", "observed-result": 72}
{"compound": "C[C@H](O)CNc1nc2c(Br)c(Br)c(Br)c(Br)c2[nH]1 [(S)-5]", "observed-result": 167}
